Taken from paper PMC10397247.

assayed_target: T1, 4H1877-AA
T1 chain: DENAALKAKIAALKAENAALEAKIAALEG
test_details: two-hybrid library CCmax;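 further: natural log of median RNA to DNA barcode read ratio; higher means stronger binding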
test_context: mean of both orientations
assay_readout: interaction score
One number for each entry.

[[record]]
binder = "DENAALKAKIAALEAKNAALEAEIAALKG [4H1842-AA]"
recorded_number = -1.15

[[record]]
binder = "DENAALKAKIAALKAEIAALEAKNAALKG [4H1864-AA]"
recorded_number = -1.45

[[record]]
binder = "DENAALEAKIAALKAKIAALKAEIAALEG [4H1385-AA]"
recorded_number = -0.357

[[record]]
binder = "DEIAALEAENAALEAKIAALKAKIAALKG [4H174-AA]"
recorded_number = -0.507


Next, consider the following binder.
The binder listed as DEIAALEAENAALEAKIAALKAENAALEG [4H171-AA] shows interaction score equal to -1.1
